# Tested on: SW-620 colon
# Test summary: NCI tumour cell line growth inhibition, 48 h; in the data active means GI50 below about 0.43 µM; inactive means the rest
Select the matching outcome among active, inactive

- Compound: "Cc1cc2nc3c4cc(C#N)ccc4n(CCN(C)C)c3nc2cc1C"
  Tested target: "SW-620 colon"
  Class name: "active"
- Compound: "CC(Nc1c(C#N)cnc2ccc(-c3cncc(O)c3)cc12)c1ccccc1 (centres undefined)"
  Tested target: "SW-620 colon"
  Class name: "inactive"
- Compound: "C#Cc1nc(C2=C(C)/C(=N/OCc3ccccc3)CC2)cs1"
  Tested target: "SW-620 colon"
  Class name: "inactive"

Consider now this further compound.
In: Could you check what this test reported for "C#CCn1cccc1CNc1ccc(OC)cc1" ?
Out: inactive

###

# Tested on: HS 578T breast
# Test summary: NCI tumour cell line growth inhibition, 48 h
Where a SMILES comes first, the peptide text is derived from it. [ ]: non-standard residue; d: D form. Phe(ol) = N[C@H](CO)Cc1ccccc1; Aib = CC(C)(N)C(=O)O
Readout type: TGI

In: Report TGI for CC(=O)NC(C)(C)C(=O)N1CCC[C@H]1C(=O)NC(C)(C)C(=O)N[C@@H](C)C(=O)NC(C)(C)C(=O)NC(C)(C)C(=O)N[C@@H](CCC(N)=O)C(=O)NC(C)(C)C(=O)N[C@H](C(=O)NC(C)(C)C(=O)NCC(=O)N[C@@H](CC(C)C)C(=O)NC(C)(C)C(=O)N1CCC[C@H]1C(=O)N[C@H](C(=O)NC(C)(C)C(=O)NC(C)(C)C(=O)N[C@@H](CCC(N)=O)C(=O)N[C@@H](CCC(N)=O)C(=O)N[C@H](CO)Cc1ccccc1)C(C)C)C(C)C (Ac-[Aib]P[Aib]A[Aib][Aib]Q[Aib]V[Aib]GL[Aib]PV[Aib][Aib]QQ[Phe(ol)]) please.
Out: > 4.25 µM

###

# Test system: NCI-H522 lung
# Test summary: NCI tumour cell line growth inhibition, 48 h
Readout type: TGI (µM)
Numbers only here, please. The scale is µM.

- Molecule: "Cc1cc2nc3c4cc(C#N)ccc4n(CCN(C)C)c3nc2cc1C"
  TGI, µM: 1.96
- Molecule: "CC(Nc1c(C#N)cnc2ccc(-c3cncc(O)c3)cc12)c1ccccc1 (centres undefined)"
  TGI, µM: 13.5

Attention now turns to another entry.
In: Report TGI for "C#Cc1nc(C2=C(C)/C(=N/OCc3ccccc3)CC2)cs1" please.
Out: 23.3

###

# Tested on: MCF7 breast
# Test summary: NCI tumour cell line growth inhibition, 48 h; in the data active = GI50 below about 0.43 µM; inactive = the rest
Where a SMILES comes first, the peptide text is derived from it. [ ]: non-standard residue; d: D form. Phe(ol) = N[C@H](CO)Cc1ccccc1; Aib = CC(C)(N)C(=O)O
Select the matching outcome among 1 (active), -1 (inactive)

- Compound: "C#Cc1nc(C2=C(C)/C(=N/OCc3ccccc3)CC2)cs1"
  Tested target: "MCF7 breast"
  Class name: -1
- Compound: "CC(=O)NC(C)(C)C(=O)N1CCC[C@H]1C(=O)NC(C)(C)C(=O)N[C@@H](C)C(=O)NC(C)(C)C(=O)NC(C)(C)C(=O)N[C@@H](CCC(N)=O)C(=O)NC(C)(C)C(=O)N[C@H](C(=O)NC(C)(C)C(=O)NCC(=O)N[C@@H](CC(C)C)C(=O)NC(C)(C)C(=O)N1CCC[C@H]1C(=O)N[C@H](C(=O)NC(C)(C)C(=O)NC(C)(C)C(=O)N[C@@H](CCC(N)=O)C(=O)N[C@@H](CCC(N)=O)C(=O)N[C@H](CO)Cc1ccccc1)C(C)C)C(C)C (Ac-[Aib]P[Aib]A[Aib][Aib]Q[Aib]V[Aib]GL[Aib]PV[Aib][Aib]QQ[Phe(ol)])"
  Tested target: "MCF7 breast"
  Class name: 1
- Compound: "Cc1cc2nc3c4cc(C#N)ccc4n(CCN(C)C)c3nc2cc1C"
  Tested target: "MCF7 breast"
  Class name: -1
- Compound: "CCNC(=O)N1CCc2cc(OC)c(OCCc3ccc(OC)cc3)cc2C1c1ccc([N+](=O)[O-])cc1C (stereo not given)"
  Tested target: "MCF7 breast"
  Class name: -1

Consider now this further compound.
In: Could you check what this test reported for "C#CCn1cccc1CNc1ccc(OC)cc1" ?
Out: -1
